Assayed System: QuantiLum Recombinant Luciferase (Photinus pyralis, UniProt P08659)
Construct: purchased
Sequence (P08659 whole entry): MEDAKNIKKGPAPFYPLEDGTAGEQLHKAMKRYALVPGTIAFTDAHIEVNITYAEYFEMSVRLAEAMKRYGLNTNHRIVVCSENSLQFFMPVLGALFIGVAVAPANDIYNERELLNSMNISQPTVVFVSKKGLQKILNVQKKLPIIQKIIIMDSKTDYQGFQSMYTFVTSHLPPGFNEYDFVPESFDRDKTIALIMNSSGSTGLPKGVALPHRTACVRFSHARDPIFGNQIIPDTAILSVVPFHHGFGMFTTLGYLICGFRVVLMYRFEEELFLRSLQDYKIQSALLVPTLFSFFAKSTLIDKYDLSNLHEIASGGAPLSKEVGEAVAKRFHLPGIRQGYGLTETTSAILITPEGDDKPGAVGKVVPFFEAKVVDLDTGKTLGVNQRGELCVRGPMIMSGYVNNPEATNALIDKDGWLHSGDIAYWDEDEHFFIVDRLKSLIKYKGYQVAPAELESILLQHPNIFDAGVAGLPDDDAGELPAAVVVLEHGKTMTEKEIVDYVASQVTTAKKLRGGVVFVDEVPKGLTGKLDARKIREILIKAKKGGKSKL
Run Description: Purified luciferase inhibition in vitro
Assay type: biochemical
Experimental Conditions: purified luciferase, room temperature, 10 min
Endpoint Name: IC50 (µM)
One number for each entry, in µM.

# Compound, IC50, µM
records = [
    ("COc1ccc(/C=C2\\CCc3c2nc2ccccc2c3C(=O)O)cc1OC", 7.2),
]

// switching to the query compound
### Prompt // lookup IC50 for COc1ccc(/C=C2\CCc3c2nc2ccccc2c3C(=O)OC(C)C(=O)O)cc1OC (stereo not drawn)
### Response 37

###

Run Description: 1E7-03 degradation in monkey plasma
Assay type: in vitro ADME
Experimental Conditions: 37°C
Endpoint Name: remaining at 24 h, 10 µM

### Prompt // lookup remaining at 24 h, 10 µM for CCNC(=O)NC(=O)C(C)OC(=O)c1c2c(nc3ccccc13)/C(=C/c1ccc(OC)c(OC)c1)CC2 (stereo not shown) [1E7-03]
### Response > 50%
